Listing of entries alongside the reported protein stability index.
B1: EPB41L3 (parent)
chain: FRFAPNHTKELEDKVIELHKSHRG

variants of: B1; assay: protein stability index of a GFP-peptide fusion (GPS, HEK-293T) (PSI 1-6); higher = more stable; details: c terminus: a fixed tail appended;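 note: lentivirally expressed fusions sorted by FACS into six bins by GFP to DsRed ratio, PSI derived from sequencing read proportions per bin multiplied by bin number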
Write the number on its own, no unit after it.

Worked examples, 5 variants total:
1. FRFAPNHTGELEDKVIELHKSHRG [K9G] :: 2.04
2. FHFAPNHTKELEDKVIELHKSHRG [R2H] :: 2.01
3. FRFAPNHCKELEDKVIELHKSHRG [T8C] :: 2.02
4. FRFAPNHVKELEDKVIELHKSHRG [T8V] :: 1.98
5. FRFAPNHTKALEDKVIELHKSHRG [E10A] :: 1.97

[Q] Consider the variant FRFAPNHTKELEDKRIELHKSHRG [V15R] and give its measured protein stability index.
[A] 1.95

[Q] Consider the variant FRFAPNHTKELEDKVIELHKSHRH [G24H] and give its measured protein stability index.
[A] 1.97

[Q] Consider the variant FRFAPDHTKELEDKVIELHKSHRG [N6D] and give its measured protein stability index.
[A] 2
